- Experimental target: ScSla1-D1-D2
- Assay info: SPOT peptide array binding signal intensity (averaged, normalized) (arbitrary units (background-subtracted, floor 0; scale differs between SH3 domains)); higher = stronger binding of the SH3 domain to the peptide
Test readout: SPOT peptide array binding signal intensity
Please give the numeric answer without any surrounding text.

KRKRRLPVSEDTNTK
261
TKRKRPARLIFYDSK
198

Request: Given `LASNSPPVYPKRIRH` , respond with its SPOT peptide array binding signal intensity.
Response: 11
